Experiment: ATG_NF_kB_CIS: Attagene CIS-FACTORIAL HepG2 Assay for human Nuclear Factor Kappa B (NF-kB) (AID 2282991)
Conditions: HepG2 Attagene cis-factorial NF-kB reporter mRNA; actives raise or lower the signal
Procedure: ATG_CIS is a cell-based, multiplexed-readout assay that uses HepG2, a human liver cell line, with measurements taken at 24 hours after chemical dosing in a 24-well plate.ATG_NF_kB_CIS is one of 52 assay component(s) measured or calculated from the ATG_CIS assay. […] This assay endpoint, ATG_NF_kB_CIS, was analyzed with bidirectional fitting relative to DMSO as the negative control and baseline of activity. […]
Activity calls are given as the source filed them. How the source made its calls: active means hit-call score of the fitted dose curve at least 0.9, where 1 is the maximum; inactive means score below 0.9.
Use one of these outcomes when replying: active, inactive

INSERT INTO results (molecule, label_class) VALUES
  ('CCCCC(CC)C(=O)Cl (centres undefined)', 'inactive'),
  ('BrCC(Br)c1ccccc1 (centres undefined)', 'inactive'),
  ('NC(=O)CCl', 'inactive'),
  ('O=C=Nc1ccc(Cl)cc1', 'inactive'),
  ('COc1ccc([N+](=O)[O-])cc1O', 'inactive'),
  ('N#Cc1ccccc1N', 'inactive');

Req: So what was the verdict on Nc1ccc(N)cc1 in this test?
Resp: inactive

Req: Next: CN(N=O)C(N)=O
Resp: inactive

Req: And then Cc1cc(SCc2sc(-c3ccc(C(F)(F)F)c(F)c3)nc2C)ccc1OCC(=O)O , what is it?
Resp: inactive

Req: Please give the result for C[C@H]1C(=O)O[C@@H]2CCN3CC=C(COC(=O)[C@](C)(O)[C@]1(C)O)[C@H]23 too.
Resp: inactive

Req: // query: CC1(C)[C@H](C(=O)O[C@H](C#N)c2cccc(Oc3ccccc3)c2)[C@@H]1/C=C(\Cl)C(F)(F)F
Resp: inactive

----------
read-out: Thyroid Hormone Responsive (THRSP), THRSP (gene 7069); assay: LTEA_HepaRG_THRSP: Life Technologies and Expression Analysis (LTEA) Assay for Thyroid Hormone Responsive (THRSP) using HepaRG (AID 2283536); conditions: mRNA level, 48 h; actives raise or lower the signal
The source made the active and inactive calls. Rule for the calls: active = hit-call score of the fitted dose curve at least 0.9, where 1 is the maximum; inactive = score below 0.9.
Just give me one of these, please: active, inactive

Known results for compounds:
INSERT INTO assay_data (molecule, label_class) VALUES
  ('Clc1cccc(Cl)c1Cl', 'inactive'),
  ('CCCCCCCCCCCCc1cccc(S(=O)(=O)O)c1', 'active'),
  ('O=C(O)C1(c2ccc3c(c2)OC[C@H](Cc2ccc(-c4ccccc4)cc2)[C@H]3O)CCCC1', 'inactive'),
  ('CN(C)C(=S)S', 'inactive'),
  ('Cc1cc(C)cc(C)c1', 'inactive'),
  ('CC(C)(C)c1ccccc1O', 'inactive');

Req: Query: recorded result category for CC(C)O.CC(C)O.OCCN(CCO)CCO.OCCN(CCO)CCO.[Ti] in this test
Resp: inactive

Req: Same again, this time with Oc1c(Cl)cc(Cl)cc1Cl
Resp: inactive

Req: Same again, this time with Oc1cc(Cl)c(Cl)cc1Cl
Resp: inactive

Req: Try this compound too: Clc1cccc(Cl)c1
Resp: inactive

----------
target: Peroxisome proliferator-activated receptor gamma (Homo sapiens) (UniProt P37231); assay: ATG_PPARg_TRANS: Attagene TRANS-FACTORIAL HepG2 Assay for human Peroxisome Proliferator-activated Receptor-gamma (PPARg) (AID 2283007)
Sequence (P37231 whole entry, looked up): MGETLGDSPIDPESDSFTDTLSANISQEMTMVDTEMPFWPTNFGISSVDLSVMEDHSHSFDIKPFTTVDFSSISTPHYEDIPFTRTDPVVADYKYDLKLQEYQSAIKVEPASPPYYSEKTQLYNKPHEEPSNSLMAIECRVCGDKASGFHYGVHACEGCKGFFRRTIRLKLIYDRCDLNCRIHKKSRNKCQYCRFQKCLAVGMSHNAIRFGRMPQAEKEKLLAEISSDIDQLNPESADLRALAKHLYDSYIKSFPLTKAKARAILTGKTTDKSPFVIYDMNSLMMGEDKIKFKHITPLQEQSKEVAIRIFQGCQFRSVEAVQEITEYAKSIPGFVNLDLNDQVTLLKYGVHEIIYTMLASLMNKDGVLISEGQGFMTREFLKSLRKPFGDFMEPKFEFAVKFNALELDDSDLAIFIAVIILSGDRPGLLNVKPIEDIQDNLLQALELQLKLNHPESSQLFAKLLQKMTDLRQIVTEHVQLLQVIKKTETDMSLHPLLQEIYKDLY
Records with an inconclusive call do not appear. Activity calls are given as the source filed them. How the source made its calls: active means hit-call score of the fitted dose curve at least 0.9, where 1 is the maximum; inconclusive means response in the unintended direction; inactive means score below 0.9.
Parameter call: string, one of YES for active, NO for inactive

INSERT INTO assay_data (compound, label_class) VALUES
  ('Clc1ccc(C(Cl)(Cl)Cl)cn1', 'NO'),
  ('CCOP(=O)(OCC)OC(=CCl)c1ccc(Cl)cc1Cl', 'YES'),
  ('C[N+](C)(C)Cc1ccccc1', 'NO');

Req: Tell me the recorded outcome of this test for ClCc1ccccc1CCl .
Resp: YES

Req: Another compound: O=C(CCl)Nc1ccccc1
Resp: YES

Req: Try this compound too: Cc1ccccc1OP(=O)(Oc1ccccc1C)Oc1ccccc1C
Resp: NO

Req: Please answer likewise for Nc1ccc(N)cc1
Resp: NO

Req: Also C1CN2CCN1CC2 ?
Resp: NO
